- Measured target: NA transporter (Rattus norvegicus)
- Construct: synaptosomes from rat brain regions were freshly isolated; from tissue; host or cells: P2 synaptosome fraction from hypothalamus of male rat brain
- Sequence (Q9WTR4 1-597): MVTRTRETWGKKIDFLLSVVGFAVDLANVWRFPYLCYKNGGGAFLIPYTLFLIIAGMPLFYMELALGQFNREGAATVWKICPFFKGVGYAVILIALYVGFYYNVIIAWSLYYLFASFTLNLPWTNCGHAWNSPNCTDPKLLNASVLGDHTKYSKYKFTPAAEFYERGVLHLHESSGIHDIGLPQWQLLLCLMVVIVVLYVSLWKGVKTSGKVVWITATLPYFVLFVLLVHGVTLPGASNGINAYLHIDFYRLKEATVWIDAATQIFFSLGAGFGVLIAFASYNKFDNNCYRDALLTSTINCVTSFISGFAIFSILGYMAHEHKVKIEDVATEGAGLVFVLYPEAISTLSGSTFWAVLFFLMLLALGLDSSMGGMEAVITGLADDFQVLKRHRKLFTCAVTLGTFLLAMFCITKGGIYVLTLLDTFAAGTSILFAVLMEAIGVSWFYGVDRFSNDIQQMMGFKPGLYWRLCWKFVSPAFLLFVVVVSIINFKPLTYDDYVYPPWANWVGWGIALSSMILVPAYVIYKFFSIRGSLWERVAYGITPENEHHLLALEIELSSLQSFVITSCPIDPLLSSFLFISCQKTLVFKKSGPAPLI
- Protocol details: Noradrenalin uptake inhibition (NA-uptake) in synaptosomes
- Type: biochemical
- Settings: rat hypothalamus synaptosomes
- Source text: Tests on Noradrenalin Uptake Inhibition (NA-Uptake Inhibition) In order to be able to carry out these in vitro studies, synaptosomes from rat brain regions were freshly isolated.
Please mark met if the recorded inhibition at 10 µM is equal to or greater than 50%, and not met if it falls below.

> print(dat)
                                   molecule      cat
1  O=C(NCc1cccc(Cl)c1)C1=NOC2(CCN(S(=O)(=O)c3cccc(C(F)(F)F)c3)CC2)C1 [Example 132]  not met
2  O=C(NCc1cccs1)C1=NOC2(CCN(C(=O)c3ccc(F)c(Cl)c3)CC2)C1 [Example 184]      met
3  O=C(NCC1CC1)C1=NOC2(CCN(C(=O)c3ccc(C(F)(F)F)cc3)CC2)C1 [Example 107]  not met
4  Cc1oc(C(C)(C)C)cc1C(=O)N1CCC2(CC1)CC(C(=O)NCC(C)C)=NO2 [Example 105]      met
5  COC(=O)CCC(=O)N1CCC2(CC1)CC(C(=O)NCc1cccs1)=NO2 [Example 114]  not met
6  CC(NC(=O)C1=NOC2(CCN(S(=O)(=O)c3ccc(F)cc3)CC2)C1)c1ccc([N+](=O)[O-])cc1 (stereo not shown) [Example 213]  not met
7  CC(NC(=O)C1=NOC2(CCN(S(=O)(=O)c3cccs3)CC2)C1)c1cccc2c1OCCO2 (stereo not shown) [Example 84]      met
8  CCOC(=O)N1CCC(NC(=O)C2=NOC3(CCN(S(=O)(=O)c4cccc(C(F)(F)F)c4)CC3)C2)CC1 [Example 122]  not met

Quick check, inhibition at 10 µM >= 50%? O=C(NCc1ccccc1)C1=NOC2(CCN(S(=O)(=O)c3cccs3)CC2)C1 [Example 136]
met

Please give the result for CC(NC(=O)C1=NOC2(CCN(S(=O)(=O)c3ccc(F)cc3)CC2)C1)C(=O)Nc1ccc2ccccc2c1 (stereo not shown) [Example 198] too.
met

And for O=C(NCc1ccccc1)C1=NOC2(CCN(C(=O)c3ccc(Br)cc3)CC2)C1 [Example 212] ?
met

Now consider CCOC(=O)C1CCCCN1C(=O)C1=NOC2(CCN(S(=O)(=O)c3ccc(Cl)s3)CC2)C1 (stereo not shown) [Example 155] .
not met

Ok, now COc1ccc(S(=O)(=O)N2CCC3(CC2)CC(C(=O)NC(C)Cc2ccc(Cl)cc2)=NO3)cc1 (stereo not shown) [Example 164]
met

Next molecule: O=C(NCc1ccccc1)C1=NOC2(CCN(C(=O)COCc3ccccc3)CC2)C1 [Example 171]
met

Can you check C=C(C)CN(CC)C(=O)C1=NOC2(CCN(S(=O)(=O)c3ccc(OC(F)(F)F)cc3)CC2)C1 [Example 103] next?
not met

###

- Measured target: NA transporter (Rattus norvegicus)
- Construct: synaptosomes from rat brain regions were freshly isolated; from tissue; host or cells: P2 synaptosome fraction from hypothalamus of male rat brain
- Protocol details: Noradrenalin uptake inhibition (NA-uptake) in synaptosomes
- Assay type: biochemical
- Settings: rat hypothalamus synaptosomes
Please enter Yes where inhibition at 10 µM is greater than or equal to 50%, and No where it is lower.

> print(dat)
                                    compound  cat
 1  O=C(C1=NOC2(CCN(S(=O)(=O)c3ccc(F)cc3)CC2)C1)N1CCN(CCCc2ccccc2)CC1  Yes
 2  O=C(NCC1COc2ccccc2O1)C1=NOC2(CCN(S(=O)(=O)c3ccc(Cl)s3)CC2)C1 (stereo not drawn)  Yes
 3  CCOC(=O)C1CCCCN1C(=O)C1=NOC2(CCN(C(=O)c3ccc(C(C)(C)C)cc3)CC2)C1 (stereo not drawn)   No
 4  O=C(NCCc1cccc(F)c1)C1=NOC2(CCN(S(=O)(=O)Cc3ccccc3)CC2)C1   No
 5  O=C(C1=NOC2(CCN(S(=O)(=O)c3ccc(Cl)s3)CC2)C1)N1CCN(c2ccccc2)CC1   No
 6  Cc1cc(C(=O)N2CCC3(CC2)CC(C(=O)NCc2ccccc2)=NO3)c(C)o1   No
 7  O=C(NCc1cccs1)C1=NOC2(CCN(C(=O)c3ccc(SC(F)(F)F)cc3)CC2)C1  Yes
 8  Cc1ccc(F)cc1S(=O)(=O)N1CCC2(CC1)CC(C(=O)NCc1cccs1)=NO2   No
 9  O=C(NCCCc1ccccc1)C1=NOC2(CCN(S(=O)(=O)c3ccc(F)cc3)CC2)C1   No
10  CCSCCNC(=O)C1=NOC2(CCN(S(=O)(=O)CC34CCC(CC3=O)C4(C)C)CC2)C1 (stereo not drawn)   No

Decide: inhibition at 10 µM of O=C(C1=NOC2(CCN(S(=O)(=O)c3cc(Cl)ccc3Cl)CC2)C1)N(CCc1ccccc1)Cc1ccccc1 >= 50%?
Yes

Request: O=C(NCc1cccs1)C1=NOC2(CCN(C(=O)c3cccc4ccccc34)CC2)C1
No

Now the compound CCSc1ncccc1C(=O)N1CCC2(CC1)CC(C(=O)NCc1ccccc1)=NO2
Yes

Next record, please: O=C(NCc1ccncc1)C1=NOC2(CCN(C(=O)c3ccc(OC(F)(F)F)cc3)CC2)C1
No
